Value source: patent US6924302B2

# measured_on: PKC (protein kinase-C), gamma or beta isoform
# experiment_notes: Kinase Selectivity Assay PKC
# test_context: Tables 2a-2k
readout_label: IC50

Quote IC50 reported for Cc1ccsc1C(=O)n1nc(Nc2ccc(N3CCNC3=O)cc2)nc1N please. > 100 µM

Quote IC50 reported for CCc1ccc(C(=O)n2nc(Nc3ccc(S(=O)(=O)Nc4ccccn4)cc3)nc2N)s1 please. > 100 µM

New cases:
Quote IC50 reported for Cc1ccsc1C(=O)n1nc(Nc2ccc(-n3cncn3)cc2)nc1N please. > 100 µM

====

# measured_on: Protein Kinase A (Bos taurus, UniProt P00517)
# Construct: purified from bovine heart; purchased Upstate Biotech 14-114; host or cells: bovine heart
# experiment_notes: Kinase Selectivity Assay Protein Kinase A
# Type: biochemical, bovine
# test_context: Kinase Selectivity, Tables 2a-2k; read-out: PKA IC50
pIC50: −log10 of the molar value.
Catalogue of pIC50 readings, one per entry.

Quote pIC50 reported for Cc1ccc(F)c(C(=O)n2nc(Nc3ccc(N4CCNC4=O)cc3)nc2N)c1F please. < 4.00

Quote pIC50 reported for Nc1nc(Nc2ccc(S(N)(=O)=O)cc2)nn1C(=O)c1cccs1 please. 5.27

Quote pIC50 reported for Cc1ccsc1C(=O)n1nc(Nc2ccc(S(=O)(=O)Nc3ccccn3)cc2)nc1N please. < 4.00

Quote pIC50 reported for Cc1ccsc1C(=O)n1nc(Nc2ccc(S(=O)(=O)NCCN(C)C)cc2)nc1N please. < 4.00

// next item, pIC50 requested
Quote pIC50 reported for Nc1nc(Nc2ccc(S(N)(=O)=O)cc2)nn1C(=O)C1CCCCC1 please. < 4.00

====

# measured_on: HER2 (human epidermal growth factor receptor-2) (Homo sapiens)
# Construct: begins at amino acid 676 followed by the remainder of the HER2 cytoplasmic domain; polyhistidine (N)
# experiment_notes: Kinase Selectivity Assay HER2
# Assay type: biochemical
# test_context: Table 1; read-out: HER2 IC50
Catalogue of IC50 readings, one per entry.
Write the number in µM without appending the unit.

Tell me IC50 of Nc1nc(Nc2ccc(S(N)(=O)=O)cc2)nn1C(=O)c1c(F)ccc(Cl)c1F when tested on HER2 (human epidermal growth factor receptor-2) (Homo sapiens). 0.78

====

Catalogue of IC50 readings, one per entry.
# measured_on: Casein Kinase 2 (alpha and beta subunits) (Homo sapiens)
# Construct: purchased New England Biolabs 6010; host or cells: E. coli
# Sequence (P68400 whole entry): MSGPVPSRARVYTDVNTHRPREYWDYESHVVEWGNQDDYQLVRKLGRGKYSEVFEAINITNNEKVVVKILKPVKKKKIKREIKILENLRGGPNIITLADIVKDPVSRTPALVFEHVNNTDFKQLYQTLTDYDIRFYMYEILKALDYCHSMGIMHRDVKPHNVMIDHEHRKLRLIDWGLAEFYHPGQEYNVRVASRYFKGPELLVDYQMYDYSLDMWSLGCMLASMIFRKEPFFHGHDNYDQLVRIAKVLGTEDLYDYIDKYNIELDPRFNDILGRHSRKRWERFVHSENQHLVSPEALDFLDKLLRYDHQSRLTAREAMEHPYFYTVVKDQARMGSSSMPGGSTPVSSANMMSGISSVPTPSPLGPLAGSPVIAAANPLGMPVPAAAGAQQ
# Sequence (P67870 whole entry partner): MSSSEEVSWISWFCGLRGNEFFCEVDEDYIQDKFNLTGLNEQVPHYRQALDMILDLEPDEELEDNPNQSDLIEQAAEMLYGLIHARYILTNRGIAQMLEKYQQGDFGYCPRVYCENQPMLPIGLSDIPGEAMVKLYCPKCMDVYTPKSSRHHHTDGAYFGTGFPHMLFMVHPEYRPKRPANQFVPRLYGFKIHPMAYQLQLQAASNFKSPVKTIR
# experiment_notes: Kinase Selectivity Assay Casein Kinase 2
# Format: biochemical
# test_context: Kinase Selectivity, Tables 2a-2k; read-out: Caseine Kinase 2 IC50
# Method: Assays to test compound inhibition of other kinases were preformed using methods that measure the amount of phosphorylation of a biotinylated peptide substrate. Biotinylated peptide substrates were selected from the literature as appropriate for the enzyme being evaluated. […] The plate was read on a scintillation counter to determine ^33P-γ-ATP incorporated into the immobilized peptide. […] A maximum and minimum signal for the assay was determined on each plate. […]

Quote IC50 reported for Nc1nc(Nc2ccc(S(N)(=O)=O)cc2)nn1C(=O)c1c(F)cccc1F please. > 100 µM

Quote IC50 reported for Nc1nc(Nc2ccc(S(N)(=O)=O)cc2)nn1C(=O)c1cccs1 please. 8.05 µM

Quote IC50 reported for Cc1ccccc1C(=O)n1nc(Nc2ccc(S(N)(=O)=O)cc2)nc1N please. > 100 µM

New cases:
Quote IC50 reported for CCc1ccc(C(=O)n2nc(Nc3ccc(S(=O)(=O)Nc4ccccn4)cc3)nc2N)s1 please. > 100 µM

Quote IC50 reported for Cc1ccc(F)c(C(=O)n2nc(Nc3ccc(S(=O)(=O)NCCN(C)C)cc3)nc2N)c1F please. > 100 µM

Quote IC50 reported for Nc1nc(Nc2ccc(S(N)(=O)=O)cc2)nn1C(=O)c1c(F)cccc1Cl please. > 100 µM

Quote IC50 reported for Cc1cc(C)c(C(=O)n2nc(Nc3ccc(NS(C)(=O)=O)cc3)nc2N)s1 please. > 10 µM

====

# measured_on: CDK1:Cyclin-B (Homo sapiens, UniProt P06493)
# Construct: purchased New England Biolabs 6020; host or cells: insect cells
# Sequence (P06493 whole entry): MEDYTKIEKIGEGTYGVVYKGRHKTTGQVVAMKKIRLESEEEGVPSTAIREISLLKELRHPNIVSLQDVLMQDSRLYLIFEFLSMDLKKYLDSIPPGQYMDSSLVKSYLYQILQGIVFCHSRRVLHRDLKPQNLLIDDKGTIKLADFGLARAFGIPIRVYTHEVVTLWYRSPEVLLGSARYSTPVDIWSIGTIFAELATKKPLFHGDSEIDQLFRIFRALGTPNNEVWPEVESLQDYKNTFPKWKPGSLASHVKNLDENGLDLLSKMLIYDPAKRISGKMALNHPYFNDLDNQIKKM
# Sequence (P14635 whole entry partner): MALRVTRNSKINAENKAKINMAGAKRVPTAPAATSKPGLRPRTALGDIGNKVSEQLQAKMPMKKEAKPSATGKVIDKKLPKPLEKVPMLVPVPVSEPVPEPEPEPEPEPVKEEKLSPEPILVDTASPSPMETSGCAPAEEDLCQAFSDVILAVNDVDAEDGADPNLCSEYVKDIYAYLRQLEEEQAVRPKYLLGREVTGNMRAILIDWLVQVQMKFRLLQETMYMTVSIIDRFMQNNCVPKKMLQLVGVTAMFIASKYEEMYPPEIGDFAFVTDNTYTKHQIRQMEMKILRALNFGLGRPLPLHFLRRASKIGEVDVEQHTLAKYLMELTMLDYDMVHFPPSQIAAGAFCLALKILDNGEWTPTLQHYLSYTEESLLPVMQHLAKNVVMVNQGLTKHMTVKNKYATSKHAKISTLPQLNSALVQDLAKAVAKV
# experiment_notes: CDK1 Screening Assay
# Type: biochemical
# test_context: Table 1; read-out: CDK1 IC50
Entries are sorted into classes by IC50 as follows: group A = under 20 nM, group B = from 20 nM up to 300 nM, group C = 300 nM and over

Determine which band this compound sits in: CN(C)CCNS(=O)(=O)c1ccc(Nc2nc(N)n(C(=O)c3c(F)cccc3F)n2)cc1 group B

Determine which band this compound sits in: Cc1ccc(F)c(C(=O)n2nc(Nc3ccc(-n4ccnc4)cc3)nc2N)c1F group B

Determine which band this compound sits in: Nc1nc(Nc2ccc(S(N)(=O)=O)cc2)nn1C(=O)c1sccc1Cl group A

New cases:
Determine which band this compound sits in: Nc1nc(Nc2ccc(S(=O)(=O)Nc3ccccn3)cc2)nn1C(=O)c1c(F)cccc1F group C

Determine which band this compound sits in: Cc1nc(C)c(C(=O)n2nc(Nc3ccc(S(N)(=O)=O)cc3)nc2N)s1 group A

====

# measured_on: HER2 (human epidermal growth factor receptor-2) (Homo sapiens, UniProt P04626)
# Construct: begins at amino acid 676 followed by the remainder of the HER2 cytoplasmic domain; polyhistidine (N)
# Sequence (P04626 676-1255 limits assumed): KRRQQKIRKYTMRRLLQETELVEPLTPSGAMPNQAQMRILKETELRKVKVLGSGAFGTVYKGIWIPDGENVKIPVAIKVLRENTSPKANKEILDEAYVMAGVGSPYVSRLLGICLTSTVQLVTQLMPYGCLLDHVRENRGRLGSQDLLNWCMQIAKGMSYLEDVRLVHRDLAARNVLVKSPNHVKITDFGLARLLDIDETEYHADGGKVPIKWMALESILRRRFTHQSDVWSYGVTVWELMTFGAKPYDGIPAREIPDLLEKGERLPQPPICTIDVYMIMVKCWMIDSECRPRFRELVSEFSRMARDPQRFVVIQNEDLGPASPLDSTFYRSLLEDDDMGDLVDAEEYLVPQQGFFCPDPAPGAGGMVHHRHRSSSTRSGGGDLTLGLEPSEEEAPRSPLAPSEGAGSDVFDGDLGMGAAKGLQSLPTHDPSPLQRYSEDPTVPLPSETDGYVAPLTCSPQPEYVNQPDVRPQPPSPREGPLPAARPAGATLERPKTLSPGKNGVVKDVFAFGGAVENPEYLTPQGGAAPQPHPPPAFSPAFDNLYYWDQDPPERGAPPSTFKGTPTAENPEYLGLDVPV
# experiment_notes: Kinase Selectivity Assay HER2
# Assay type: biochemical
# test_context: Table 1; read-out: HER2 IC50
readout_label: pIC50
Please treat pIC50 as minus the base-10 logarithm of the molar concentration.

Quote pIC50 reported for CC(O)c1ccc(F)c(C(=O)n2nc(Nc3ccc(S(N)(=O)=O)cc3)nc2N)c1F (centres unmarked) please. 6.19

Quote pIC50 reported for Cc1cc(C)c(C(=O)n2nc(Nc3ccc(N4CCN(C)CC4)cc3)nc2N)s1 please. 7.21

Quote pIC50 reported for Cc1cc(C)c(C(=O)n2nc(Nc3ccc(NS(C)(=O)=O)cc3)nc2N)s1 please. 7.38

Quote pIC50 reported for CC(C)(C)c1ccc(C(=O)n2nc(Nc3ccc(S(N)(=O)=O)cc3)nc2N)s1 please. 7.51

Quote pIC50 reported for CCc1ccc(C(=O)n2nc(Nc3ccc(N4CCN(C)CC4)cc3)nc2N)s1 please. 7.22

Quote pIC50 reported for Nc1ccc(F)c(C(=O)n2nc(Nc3ccc(S(N)(=O)=O)cc3)nc2N)c1F please. 5.66

New cases:
Quote pIC50 reported for Cc1ccc(F)c(C(=O)n2nc(Nc3ccc(N4CCN(C)CC4)cc3)nc2N)c1F please. 5.83

Quote pIC50 reported for Cc1ccccc1C(=O)n1nc(Nc2ccc(S(N)(=O)=O)cc2)nc1N please. 5.88

Quote pIC50 reported for Cc1ccc(F)c(C(=O)n2nc(Nc3ccc(NS(C)(=O)=O)cc3)nc2N)c1F please. 4.79

Quote pIC50 reported for Cc1ccc(F)c(C(=O)n2nc(Nc3ccc(-n4cncn4)cc3)nc2N)c1F please. 6.04

====

# measured_on: Calmodulin Kinase (calmodulin-dependent protein kinase 2) (Rattus norvegicus)
# Construct: a truncated version of the alpha subunit of the rat protein; purchased New England Biolabs 6060; host or cells: insect cells
# experiment_notes: Kinase Selectivity Assay Calmodulin Kinase
# Format: biochemical
readout_label: IC50

Quote IC50 reported for Cc1cc(C)c(C(=O)n2nc(Nc3ccc(S(N)(=O)=O)cc3)nc2N)s1 please. > 10 µM

====

# measured_on: CDK1:Cyclin-B (Homo sapiens)
# Construct: purchased New England Biolabs 6020; host or cells: insect cells
# experiment_notes: CDK1 Screening Assay
# Assay type: biochemical
# test_context: Kinase Selectivity, Tables 2a-2k; read-out: CDK1 IC50
readout_label: log10 of IC50 (log10 of the value in nM)
Plainly stated, the numbers are log10 of IC50 given in nM.

Quote log10 of IC50 reported for Cc1cc(C)c(C(=O)n2nc(Nc3ccc(NS(C)(=O)=O)cc3)nc2N)s1 [Cpd 108] please. 1.82

Quote log10 of IC50 reported for CN1CCN(c2ccc(Nc3nc(N)n(C(=O)c4c(F)cccc4F)n3)cc2)CC1 [Cpd 71] please. 3.57

Quote log10 of IC50 reported for Nc1nc(Nc2ccc(S(N)(=O)=O)cc2)nn1C(=O)c1sccc1F [Cpd 16] please. 1.32

Quote log10 of IC50 reported for Nc1nc(Nc2ccc(S(N)(=O)=O)cc2)nn1C(=O)c1c(F)cccc1F [Cpd 1] please. 0.78

Quote log10 of IC50 reported for Nc1nc(Nc2ccccc2)nn1C(=O)Nc1ccccc1 [Cpd 65] please. 2.83

Quote log10 of IC50 reported for Nc1nc(Nc2ccccc2)n(C(=O)c2c(F)cccc2F)n1 [Cpd 124] please. 3.34

Quote log10 of IC50 reported for Nc1ccc(F)c(C(=O)n2nc(Nc3ccc(S(N)(=O)=O)cc3)nc2N)c1F [Cpd 55] please. 1.30

Quote log10 of IC50 reported for Nc1nc(Nc2ccc(S(=O)(=O)Nc3ccccn3)cc2)nn1C(=O)c1c(F)cccc1F [Cpd 118] please. 2.52
